# system name: FGFR3 (UniProt P22607)
# Sequence (P22607 whole entry, looked up): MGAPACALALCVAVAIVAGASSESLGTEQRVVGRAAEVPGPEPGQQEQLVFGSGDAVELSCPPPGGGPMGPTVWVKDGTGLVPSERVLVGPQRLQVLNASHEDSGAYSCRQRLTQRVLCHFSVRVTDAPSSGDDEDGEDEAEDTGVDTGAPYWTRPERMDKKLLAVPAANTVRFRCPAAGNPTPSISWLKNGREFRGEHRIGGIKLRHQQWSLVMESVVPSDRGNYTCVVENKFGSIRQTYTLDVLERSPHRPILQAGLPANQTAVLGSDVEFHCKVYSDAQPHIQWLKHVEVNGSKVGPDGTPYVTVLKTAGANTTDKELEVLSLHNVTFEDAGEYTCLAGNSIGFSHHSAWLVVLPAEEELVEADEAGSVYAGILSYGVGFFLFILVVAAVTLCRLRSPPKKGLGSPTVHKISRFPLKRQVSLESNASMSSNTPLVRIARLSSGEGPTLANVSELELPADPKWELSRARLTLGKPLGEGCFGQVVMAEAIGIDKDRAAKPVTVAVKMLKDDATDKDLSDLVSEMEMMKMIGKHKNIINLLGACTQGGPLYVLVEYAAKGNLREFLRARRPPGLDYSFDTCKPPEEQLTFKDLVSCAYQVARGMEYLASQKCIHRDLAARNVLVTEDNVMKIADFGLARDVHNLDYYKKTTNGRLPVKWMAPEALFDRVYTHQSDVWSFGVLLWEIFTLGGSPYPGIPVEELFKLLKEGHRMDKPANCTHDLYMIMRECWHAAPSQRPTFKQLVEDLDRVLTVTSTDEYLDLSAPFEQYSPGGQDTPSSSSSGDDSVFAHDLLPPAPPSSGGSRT
# protocol details: phosphorylation enrichment, bacterial display (enrichment ratio); higher = better substrate or ligand; peptides without Tyr show the background;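 also: 11-residue human phosphosite peptides and single-mutation variants displayed on the E. coli surface, counted by deep sequencing, each peptide's frequency after selection divided by its frequency in the unselected input library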;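 also: frequency after pTyr selection over input frequency; kinase dosed for 20-30% of maximal phosphorylation in three min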
recorded endpoint: phosphorylation enrichment
The answer should be a number; do not append a unit.

As a guide, the following entries are already answered.
sequence code | phosphorylation enrichment
GGKYSYLKVGH [GRM3_Y480] | 0.536
QELRRYLKSGI [MICA_Y194_V199I] | 0.313
ERMKVYVPIGF [EPHX1_Y393_T396I] | 0.538
DPTFGYEDFTR [SESN2_Y323] | 0.699
PMQLPYDSRWE [PDGFRA_Y582] | 0.712
SNFRAYATEPH [TNNI3_Y29_YF] | 0.462
DAMQTYNGNDE [TSPAN7_Y131] | 0.837
VSYDEYRYRSV [CFTR_Y515] | 0.484
DPEATYTTSGS [EPHA2_Y772_G777S] | 0.596
GGDGSYVSVPS [TNNI3K_Y425] | 0.592

IN: Please report the recorded phosphorylation enrichment for PLFKIYVAELI [MRPL28_Y230] .
OUT: 1.54

IN: Which phosphorylation enrichment is listed for MHFSNYVSKGS [PDGFRA_Y849_D846Y_YF] ?
OUT: 0.565

IN: Requested field: phosphorylation enrichment. Item: RKPDIYGRLAS [MCM4_Y459_E460G]
OUT: 1.05

IN: Entry VILARYGPAWR [CYP2D6_Y124_F120I] has what phosphorylation enrichment?
OUT: 0.608

IN: So what does the record say about phosphorylation enrichment for HSGVSYYINLC [IGF2R_Y2024_N2020S] ?
OUT: 1.09

IN: Suppose we examine the sequence PQAVTYATVKH [LILRB4_Y360_K362T] ; what phosphorylation enrichment value has been reported?
OUT: 0.607

IN: # query: phosphorylation enrichment of entry RSRSPYSSRHS [CDK13_Y415]
OUT: 0.489

IN: Give its phosphorylation enrichment value. Item: RSSGGYEPRGR [FUS_Y239]
OUT: 0.403

IN: I am curious: what phosphorylation enrichment value has been reported for QHVPDYRQNGF [PCDHGA1_Y890_V894G_YF] ?
OUT: 0.597

IN: Endpoint output: phosphorylation enrichment of ATDLAYFLVRK [ASL_Y375_YF] . Value?
OUT: 1.32

IN: Tell me the measured phosphorylation enrichment of PQAVTYAKVKH [LILRB4_Y360] , please.
OUT: 0.334

IN: Which value of phosphorylation enrichment has been reported for NTYENYWPFYQ [GATM_Y103_K102N] in the records?
OUT: 12.4

IN: Quick one: phosphorylation enrichment of GIFKDYFRFNF [PLA2G2D_Y85_S80G_YF] ?
OUT: 2.94

IN: Give its phosphorylation enrichment value. Item: LNGDRYFKGIV [DCX_Y64_R59L]
OUT: 3.96

IN: Which phosphorylation enrichment is reported for this sequence? HKGASYAFRLS [PTPRD_Y891_V892A]
OUT: 1.11

IN: Need phosphorylation enrichment of FQKNIYSEELR [LMNA_Y211] , thanks.
OUT: 1.2

IN: Need phosphorylation enrichment, item RDLEQYVNNVN [PCDH19_Y1097]
OUT: 0.633

IN: Which phosphorylation enrichment value belongs to VGTKRYMALEV [ACVRL1_Y375_P378L] ?
OUT: 0.541

IN: For the sequence DMQTLYVNTAA [SMCHD1_Y403] , what phosphorylation enrichment is on record?
OUT: 0.478

IN: For the sequence shown here, ILGRTHFVNHE [NEDD4_Y627_Y627H_YF] , give the reported phosphorylation enrichment.
OUT: 0.559

# credit: the supplement of paper PMC10065799
